- Assay Comment: Equilibrium solubility of compound in PBS at pH 2 incubated for 2 to 5 days by HPLC analysis
- Format: physicochemical
- Run Conditions: PBS, time 2-5 day
Result Type: solubility thermodynamic
Don't forget the unit after the value.

>  <Structure>
CCn1c(CO)nn(-c2cc3c(C(C)C)cn(-c4ccccc4C(F)F)c(=O)c3cc2F)c1=O

>  <solubility thermodynamic>
228 µM

$$$$
>  <Structure>
CCn1c(CO)nn(-c2cc3c([C@@H](C)C(F)(F)F)cn(-c4ccccc4C)c(=O)c3cc2F)c1=O

>  <solubility thermodynamic>
184 µM

$$$$
>  <Structure>
CCn1c(CO)nn(-c2cc3c(C(C)C)cn(-c4ccccc4Cl)c(=O)c3cc2F)c1=O

>  <solubility thermodynamic>
153 µM

$$$$
>  <Structure>
CCn1c(CO)nn(-c2cc3c(C(C)C)cn(-c4ccccc4C)c(=O)c3cc2F)c1=O

>  <solubility thermodynamic>
325 µM

$$$$
>  <Structure>
CCn1c(CO)nn(-c2cc3c(C(C)C)cn(-c4cccc(F)c4C)c(=O)c3cc2F)c1=O

>  <solubility thermodynamic>
235 µM

$$$$
>  <Structure>
CCc1ccccc1-n1cc(C(C)C)c2cc(-n3nc(CO)n(CC)c3=O)c(F)cc2c1=O

>  <solubility thermodynamic>
193 µM

$$$$

Batch request: solubility thermodynamic per item, same order as input.
1. CCn1c(CO)nn(-c2cc3c(C(C)C)cn(-c4ccccc4F)c(=O)c3cc2F)c1=O
2. CCn1c(CO)nn(-c2cc3c([C@H](C)C(F)(F)F)cn(-c4ccccc4C)c(=O)c3cc2F)c1=O

Completion:
["19 µM", "164 µM"]

Prompt: I am curious: what solubility thermodynamic value has been reported for `CCn1c(CO)nn(-c2cc3c(C(C)C)cn(-c4ccc(F)cc4C)c(=O)c3cc2F)c1=O` ?
Completion: 25 µM

----------
- Experimental System: Voltage-gated inwardly rectifying potassium channel KCNH2 (Homo sapiens)
- Sequence (Q12809 whole entry): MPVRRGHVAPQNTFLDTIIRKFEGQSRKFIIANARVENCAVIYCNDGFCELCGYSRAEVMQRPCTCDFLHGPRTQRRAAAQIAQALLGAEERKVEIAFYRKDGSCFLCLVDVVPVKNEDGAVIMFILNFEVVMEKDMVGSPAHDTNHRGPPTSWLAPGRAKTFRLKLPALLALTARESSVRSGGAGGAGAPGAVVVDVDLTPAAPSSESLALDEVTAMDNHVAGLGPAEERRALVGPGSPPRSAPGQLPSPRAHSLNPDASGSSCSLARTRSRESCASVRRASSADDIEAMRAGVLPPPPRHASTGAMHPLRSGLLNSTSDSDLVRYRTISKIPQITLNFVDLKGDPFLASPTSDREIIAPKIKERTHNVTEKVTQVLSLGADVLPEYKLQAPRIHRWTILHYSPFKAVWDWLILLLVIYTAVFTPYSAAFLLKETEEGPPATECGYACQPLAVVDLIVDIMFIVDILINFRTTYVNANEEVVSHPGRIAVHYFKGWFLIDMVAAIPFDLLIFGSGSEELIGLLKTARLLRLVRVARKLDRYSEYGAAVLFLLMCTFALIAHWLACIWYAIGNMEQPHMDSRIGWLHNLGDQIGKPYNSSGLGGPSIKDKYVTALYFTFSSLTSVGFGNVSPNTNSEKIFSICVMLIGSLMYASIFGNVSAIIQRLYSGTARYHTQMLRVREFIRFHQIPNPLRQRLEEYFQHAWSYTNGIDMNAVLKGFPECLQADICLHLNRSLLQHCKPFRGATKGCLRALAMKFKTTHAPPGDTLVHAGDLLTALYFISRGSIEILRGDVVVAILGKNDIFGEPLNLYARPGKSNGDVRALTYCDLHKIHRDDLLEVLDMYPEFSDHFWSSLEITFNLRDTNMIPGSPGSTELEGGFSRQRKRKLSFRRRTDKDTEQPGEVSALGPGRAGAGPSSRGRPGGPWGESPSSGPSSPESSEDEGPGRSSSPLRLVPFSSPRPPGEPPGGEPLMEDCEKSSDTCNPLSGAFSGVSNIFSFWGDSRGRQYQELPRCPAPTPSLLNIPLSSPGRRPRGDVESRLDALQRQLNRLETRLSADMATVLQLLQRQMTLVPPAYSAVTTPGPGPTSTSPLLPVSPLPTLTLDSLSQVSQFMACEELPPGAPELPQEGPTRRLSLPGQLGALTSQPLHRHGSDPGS
- Assay Comment: Inhibition of hERG
- Type: toxicity
Result Type: IC50

Prompt: Consider the compound shown here: `CCn1c(CO)nn(-c2cc3c(C(C)C)cn(-c4ccccc4C)c(=O)c3cc2F)c1=O` What is its recorded IC50?
Completion: > 10 µM

----------
- Assay Comment: Volume of distribution at steady state in C57BL mouse at 2 mg/kg,iv measured upto 24 hrs by LC-MS/MS analysis
- Type: ADME, organism-based
- Run Conditions: in vivo, read-out: Vdss
Result Type: Vd
Remember to quote the unit after the number.

Worked examples, 4 compounds total:
>  <Structure>
CCn1c(CO)nn(-c2cc3c(C(C)C)cn(-c4ccccc4C)c(=O)c3cc2F)c1=O

>  <Obs Value>
1.6 L/kg

$$$$
>  <Structure>
CCn1c(CO)nn(-c2cc3c([C@@H](C)C(F)(F)F)cn(-c4ccccc4C)c(=O)c3cc2F)c1=O

>  <Obs Value>
1.3 L/kg

$$$$
>  <Structure>
CCn1c(CO)nn(-c2cc3c(C(C)C)cn(-c4ccccc4C(F)(F)F)c(=O)c3cc2F)c1=O

>  <Obs Value>
1.2 L/kg

$$$$
>  <Structure>
CCn1c(CO)nn(-c2cc3c(C(C)C)cn(-c4c(C)cnc(OC)c4Cl)c(=O)c3cc2F)c1=O

>  <Obs Value>
2.1 L/kg

$$$$

// next item, Vd requested
Prompt: Would you mind telling me what Vd value was observed for `CCn1c(CO)nn(-c2cc3c(C(C)C)cn(-c4c(F)cccc4Cl)c(=O)c3cc2F)c1=O` ?
Completion: 1.3 L/kg

Origin of the recorded values: ChEMBL document CHEMBL5584243
